Assay method text: Natriuretic polypeptide receptor (hNpr1) antagonism - Pilot counterscreen GloSensor control cell line (AID 1347045)
Run parameters: HEK293 cGMP GloSensor cells, SNP-stimulated luminescence, 20 min; series mostly up to 38.3 µM
Inconclusive results are not listed. Calls of active or inactive are those of the source. The call rests on the fitted dose curve.
Outcome (select one): yes (1) (active), no (0) (inactive)

Nc1c(S(=O)(=O)O)cc(Nc2ccc(Nc3nc(Cl)nc(Nc4ccc(S(=O)(=O)O)cc4)n3)c(S(=O)(=O)O)c2)c2c1C(=O)c1ccccc1C2=O	yes (1)

Prompt line: # lookup: test call for CN1C2CCCC1CC(NC(=O)c1nn(C)c3ccccc13)C2 (stereo unspecified)
Response line: no (0)

Prompt line: # lookup: test call for Cc1cccc(/C=C/c2ccccc2)n1
Response line: no (0)

Prompt line: # lookup: test call for S=C(Nc1ccccc1)Nc1nccs1
Response line: yes (1)

Prompt line: # lookup: test call for O=C1c2ccccc2C(=O)c2c(NCCc3ccc(O)cc3)ccc(NCCc3ccc(O)cc3)c21
Response line: yes (1)

Prompt line: # lookup: test call for C[C@H](Cc1ccccc1)Nc1ncnc2c1ncn2[C@@H]1O[C@H](CO)[C@@H](O)[C@H]1O
Response line: no (0)
